Reported GI50 values for the following compounds.
system: UACC-62; assay: NCI tumour cell line growth inhibition, 48 h
Calls of active or inactive are those of the source. Rule as the data show it: active = GI50 up to about 1.1 µM and inactive = higher.

{"columns": ["COMPOUND", "GI50"],
 "data": [
  ["CCOC(=O)c1cn2c(n1)sc1cc([N+](=O)[O-])ccc12", "> 100 µM (inactive)"],
  ["CC(C)OP(=O)(CN(C)/C(F)=N\\C(F)(F)F)OC(C)C", "> 100 µM (inactive)"],
  ["C[C@]12CC[C@H](OC3CCCCO3)CC1=CC[C@@H]1C2CC[C@]2(C)/C(=N/OCCC#N)CCC12 (stereo not given in full)", "97.1 µM (inactive)"],
  ["CC(C)Cc1ccc(C(C)/C=C2\\CCC(CN(C)C)C2=O)cc1 (stereo not given)", "17.5 µM (inactive)"],
  ["C[C@H](CCC1SC1(C)C)C1CCC2(C)C3=C(CC[C@]12C)[C@@]1(C)CC[C@H](O)C(C)(C)C1CC3 (stereo not given in full)", "> 100 µM (inactive)"]
]}

====

system: EKVX; assay: NCI tumour cell line growth inhibition, 48 h
Active and inactive are the calls of the source. No stated cut-off is given here; in the data, active = GI50 up to about 1.1 µM and inactive = higher.
Reported GI50 values for the following compounds.

{"columns": ["COMPOUND", "GI50"],
 "data": [
  ["Clc1ccc2c(c1)CC1C[N+]3=C(CCCC3)C1=C2 (stereo not given)", "78.7 µM (inactive)"],
  ["CC(C)=Cc1cc(C(=O)Nc2ccc(Cl)c(Cl)c2)nc(N)n1", "> 100 µM (inactive)"],
  ["CCN(CC)CCOc1ccc(N2C(=O)c3cccc4cc([N+](=O)[O-])cc(c34)C2=O)cc1", "16.3 µM (inactive)"],
  ["N#Cc1nc(C2CCC(=O)O2)oc1N (stereo not given)", "> 100 µM (inactive)"],
  ["O=c1[nH]nc(-c2ccccc2)n1/N=C/c1ccccc1Cl", "45.9 µM (inactive)"],
  ["CN(C)c1ccc(C2CC(=O)CC(c3ccc(N(C)C)cc3)C23C(=O)NC(=S)NC3=O)cc1 (stereo not given)", "55.5 µM (inactive)"],
  ["CCC1CCC2C3CC=C4CC(OC(C)=O)C(N)CC4(C)C3CCC12C (stereo not given)", "4.62 µM (inactive)"],
  ["O=C(O)CCCc1nc2c(n1-c1ccccc1)C(=O)c1ccccc1C2=O", "62.8 µM (inactive)"],
  ["O=C(Nc1ccc2[nH]c(C(=O)N3CC(CCl)c4ccc([N+](=O)[O-])cc43)cc2c1)c1cc2ccccc2o1 (stereo not given)", "> 1100 µM (inactive)"],
  ["C[C@]12CC[C@H](OC3CCCCO3)CC1=CC[C@@H]1C2CC[C@]2(C)/C(=N/OCCC#N)CCC12 (stereo not given in full)", "19.2 µM (inactive)"]
]}

====

system: RXF 393; assay: NCI tumour cell line growth inhibition, 48 h
Activity calls are given as the source filed them. Rule as the data show it: active = GI50 up to about 1.1 µM and inactive = higher.
Reported GI50 values for the following compounds.

{"columns": ["COMPOUND", "GI50"],
 "data": [
  ["Nc1nc(Cl)c(C=O)c(NCC2(CO)CC(CCc3ccccc3)C2)n1 (stereo not given)", "14.2 µM (inactive)"],
  ["Cc1cc(C)c2c(c1)CC1(Cc3c(ccc(C)c3C)C1=O)C2=O (stereo not given)", "> 100 µM (inactive)"],
  ["N#Cc1sc2c(c1OC(=O)c1ccc(Cl)cc1)c(=O)n(-c1ccccc1)c(=S)n2-c1ccccc1", "19.7 µM (inactive)"],
  ["S=P1(N2CCCCC2)Oc2ccc3ccccc3c2-c2c(ccc3ccccc23)O1", "> 89.7 µM (inactive)"],
  ["N#CCCCC[N+]12CN3CN(CN(C3)C1)C2", "> 100 µM (inactive)"],
  ["COc1ccc(C(=O)/C=C/c2cccnc2)cc1OC", "5.81 µM (inactive)"],
  ["COc1ccc(N(C)C(=O)N(C)c2ccc([N+](=O)[O-])cc2)cc1", "14.3 µM (inactive)"],
  ["CC1=NN(c2cccc(Cl)c2)C2(C1)C(Cl)C(=O)N2c1nc2ccccc2s1 (stereo not given)", "27.9 µM (inactive)"],
  ["CCCCCCc1cc2cc(C(=O)Nc3nc(C45CC6CC(CC(C6)C4)C5)cs3)c(=O)oc2cc1O", "8.24 µM (inactive)"],
  ["COc1ccc(/N=N/C(=N/NC(=O)c2cc(Cl)ccc2C(=O)c2ccccc2)c2ccc(N(CCC#N)CCC#N)cc2C)cc1", "3.8 µM (inactive)"]
]}

====

tested on: HOP-92; assay: NCI tumour cell line growth inhibition, 48 h
Calls of active or inactive are those of the source. Cut-off read from the data, not from the text of the source: active = GI50 up to about 1.1 µM and inactive = higher.
Outcomes: active, inactive

{"columns": ["COMPOUND", "TEST TARGET", "DISCRETE LABEL"],
 "data": [
  ["CCOC(=O)c1cn2c(n1)sc1cc([N+](=O)[O-])ccc12", "HOP-92", "inactive"],
  ["C/C(NC(=O)c1ccccc1)=C(/C(=O)c1ccccc1)[C@@H]1OC(C)(C)O[C@@H]1[C@H]1COC(C)(C)O1", "HOP-92", "inactive"],
  ["CC(C)(CN1CCCCC1)C(=O)/C=C/c1c(Cl)cccc1Cl", "HOP-92", "active"],
  ["O/N=C\\C(=N/O)Nc1ccc(Cc2ccc(NC(/C=N\\O)=N/O)cc2)cc1", "HOP-92", "inactive"],
  ["Nc1nc(Cl)cc(OCC2(CO)CCCCC2)n1", "HOP-92", "inactive"],
  ["COc1ccc(C(C2C(=O)N(C)C(=O)N(C)C2=O)C(F)(F)C(=O)N(C)C)cc1 (centres undefined)", "HOP-92", "inactive"],
  ["CC(C)=Cc1cc(C(=O)Nc2ccc(Cl)c(Cl)c2)nc(N)n1", "HOP-92", "inactive"],
  ["O=C(NNS(=O)(=O)c1ccccc1)c1cccnc1", "HOP-92", "inactive"],
  ["O=C(O)CCCc1nc2c(n1-c1ccccc1)C(=O)c1ccccc1C2=O", "HOP-92", "inactive"]
]}

====

test system: SNB-75; assay: NCI tumour cell line growth inhibition, 48 h
Activity calls are given as the source filed them. Cut-off read from the data, not from the text of the source: active = GI50 up to about 1.1 µM and inactive = higher.
Outcomes: active, inactive

{"columns": ["MOLECULE", "DISCRETE LABEL"],
 "data": [
  ["COC[n+]1cc2cc(OC)c(OC)cc2c2ccc3cc(OC)c(OC)cc3c21", "inactive"],
  ["COc1ccc(-c2csc3c2[N+]2(C)C=CC=C2C3N2CCCC2)cc1 (stereo unspecified)", "inactive"],
  ["CCOC(=O)C1S/C(=N\\c2ccccc2)N=C1C (stereo unspecified)", "inactive"],
  ["Cc1cc(OP2(=O)NCc3ccncc3O2)ccc1Cl (stereo unspecified)", "inactive"],
  ["COc1cc(C2c3cc4c(cc3OC(NNC(N)=O)C2C)OCO4)cc(OC)c1OC (stereo unspecified)", "active"],
  ["C1CN2N3CCCC23C1 (stereo unspecified)", "inactive"]
]}

====

Reported GI50 values for the following compounds.
tested on: DMS-273; assay: NCI tumour cell line growth inhibition, 48 h
Active and inactive are the calls of the source. Cut-off read from the data, not from the text of the source: active = GI50 up to about 1.1 µM and inactive = higher.

{"columns": ["COMPOUND", "GI50"],
 "data": [
  ["COc1cc(/C=C(\\NC(=O)c2ccccc2)c2nc3cncnc3[nH]2)cc(OC)c1OC", "> 100 µM (inactive)"],
  ["COc1c2c(nc3ccccc13)-c1cc3c(c(=O)n1C2)COC(=O)C3(O)CC(=O)N1CCOCC1 (stereo not given)", "1.11 µM (active)"],
  ["CCC1=C(C(C)=O)[C@@H]2CCCCC(C(=O)OC)[C@@H]2C1=O (stereo not given in full)", "> 100 µM (inactive)"],
  ["O=C(CCc1ccccc1)On1nnc2ccccc2c1=O", "> 100 µM (inactive)"],
  ["COC(=O)C(CC(=O)Nc1ccc(Cl)c(Cl)c1)C(=O)C(=O)NC1C2CC3CC(C2)CC1C3 (stereo not given)", "> 100 µM (inactive)"],
  ["COc1ccc(CSc2nc3ccccc3nc2-c2cccs2)cc1", "> 100 µM (inactive)"],
  ["COC1C(OC(=O)/C=C/C=C/C=C/C=C\\C(=O)O)CCC2(CO2)C1C1(C)OC1CC=C(C)C (stereo not given)", "> 100 µM (inactive)"],
  ["O=C(O)CNS(=O)(=O)c1ccc(NC(=O)c2ccc(F)cc2)cc1", "> 100 µM (inactive)"],
  ["S=P1(N2CCCCC2)Oc2ccc3ccccc3c2-c2c(ccc3ccccc23)O1", "> 80.2 µM (inactive)"],
  ["O=Cc1ccc(-c2cccs2)s1", "> 100 µM (inactive)"],
  ["COc1c(Br)cc(Br)c(OC)c1-c1[nH]c(Br)c(Br)c1Br", "6.9 µM (inactive)"],
  ["Cc1c(C(=O)/C=C/c2cccc3ccccc23)[n+]([O-])c2ccccc2[n+]1[O-]", "11.7 µM (inactive)"],
  ["C=C1Oc2nc3ccccc3c(=O)n2C1(C)C", "> 100 µM (inactive)"],
  ["CCOC(=O)c1cccnc1C(OC(C)=O)OC(C)=O", "> 100 µM (inactive)"],
  ["C#CCN(Cc1ccc2nc(-c3ccccc3)c(Cl)nc2c1)c1cc(OC)c(OC)c(OC)c1", "99.5 µM (inactive)"],
  ["C=CC(=O)C#CC#CC/C=C\\CCCCCCC", "> 20.6 µM (inactive)"],
  ["Cc1ccccc1N1C(=O)C2C=CC(n3[nH]c(=O)n(Cc4ccccc4)c3=O)CC2C1=O (stereo not given)", "> 100 µM (inactive)"],
  ["C=C1COC(/C=C(\\C)CC/C=C(\\C)CCl)C1 (stereo not given)", "> 100 µM (inactive)"],
  ["CC(C)=Cc1cc(C(=O)Nc2ccc(Cl)c(Cl)c2)nc(N)n1", "> 100 µM (inactive)"],
  ["COC(=O)/C(=C/c1ccc(OC)cc1)C(C(=O)O)=C(C)C", "> 100 µM (inactive)"]
]}

Values from ChEMBL document CHEMBL1201862
